B1: MATN2 (parent)
chain: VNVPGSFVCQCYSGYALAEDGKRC

- Variants of: B1
- Method notes: protein stability index of a GFP-peptide fusion (GPS, HEK-293T) (PSI 1-6); higher = more stable;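 further: lentivirally expressed fusions sorted by FACS into six bins by GFP to DsRed ratio, PSI derived from sequencing read proportions per bin multiplied by bin number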
- Assay conditions: c terminus: a fixed tail appended
Each item that follows carries a reported protein stability index.
Readout label: protein stability index

In [3]: df
Out[3]:
    mutation_descriptor   val
 0                 K22Q  1.49
 1                  V1P  2.86
 2                  P4D  1.91
 3                  F7C  2.28
 4                  F7I  1.92
 5                  G5Y   1.2
 6                  C9Q  2.97
 7                  V8H  2.34
 8                 S13G  2.33
 9                 D20M  1.72
10                  N2E  3.38
11                 A18S  1.93
12                 G14K   2.7
13                 A16W  1.05
14                 Q10H  1.78
